- assayed_system: Peroxisome proliferator-activated receptor delta (Homo sapiens)
- Sequence (Q03181 whole entry): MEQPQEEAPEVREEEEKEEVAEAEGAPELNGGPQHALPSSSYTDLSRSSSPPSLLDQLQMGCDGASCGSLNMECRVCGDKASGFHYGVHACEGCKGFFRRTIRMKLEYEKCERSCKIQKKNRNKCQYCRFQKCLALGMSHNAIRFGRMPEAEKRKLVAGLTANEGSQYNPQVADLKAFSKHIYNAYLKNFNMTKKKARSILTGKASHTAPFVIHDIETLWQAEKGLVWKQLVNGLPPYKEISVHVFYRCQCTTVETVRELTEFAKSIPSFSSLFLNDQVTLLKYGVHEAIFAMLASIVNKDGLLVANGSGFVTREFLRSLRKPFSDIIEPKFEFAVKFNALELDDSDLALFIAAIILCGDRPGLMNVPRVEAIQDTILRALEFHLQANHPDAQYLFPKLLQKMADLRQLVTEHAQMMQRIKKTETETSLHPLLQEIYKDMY
- assay_text: In vitro activation of human peroxisome proliferator activated receptor delta (PPAR delta)
Recorded log10(EC50) for the following molecules
Short version: log10 scale, EC50, µM.

Answered cases to consult:
CCO[C@@H](Cc1ccc(OC/C=C(\c2ccccc2)c2ccc(Br)cc2)cc1)C(=O)O; -0.05
CCO[C@@H](Cc1ccc(OC/C=C(/c2ccccc2)c2ccc(-c3ccccc3)cc2)cc1)C(=O)O; 0.34
CCO[C@@H](Cc1ccc(OCC=C(c2ccccc2)c2ccccc2)cc1)C(=O)O; 0.76
CCO[C@@H](Cc1ccc(OCC=C(c2ccc(OC)cc2)c2ccc(OC)cc2)cc1)C(=O)O; -0.15

query: Param readout= log10(EC50); system= Peroxisome proliferator-activated receptor delta (Homo sapiens); entry= CCO[C@@H](Cc1ccc(OC/C=C(\c2ccccc2)c2ccc(F)cc2)cc1)C(=O)O ; returns value.
result: 0.92
